B1: TAF7L (parent)
chain: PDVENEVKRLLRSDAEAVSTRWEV

Variants of: B1
Test: protein stability index of a GFP-peptide fusion (GPS, HEK-293T) (PSI 1-6); higher = more stable;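 also: lentivirally expressed fusions sorted by FACS into six bins by GFP to DsRed ratio, PSI derived from sequencing read proportions per bin multiplied by bin number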
Settings: c terminus: a fixed tail appended
protein stability index for assorted variants
Outcome measure: protein stability index

Mutation descriptor	Experimental result
R9K	4.02
E4K	3.35
E16D	3.74
D2C	2.9
T20A	4.18
R21F	2.53
L11P	4.74
E23C	2.83
A15E	4.36
R12K	4.19
E23I	2.59
A15L	3.58
T20P	2.15
K8V	3.44
D2V	3.2
D14N	2.75
V18T	3.83
T20K	3.85
A15W	2.93
P1N	3.43
S19P	3.75
S13Y	2.87
L11M	3.14
S19I	3.03
E16C	2.01
E23S	2.53
S13D	4.14
E4M	1.69
E16Y	1.46
E23H	3.56
R12Y	3.96
T20L	2.29
V18G	4.29
E16F	2.27
A17F	2.64
E6G	3.25
L10Q	3.25
E23Q	2.68
N5K	3.21

All figures here come from the supplement of paper PMC10567573.
